Below is a list of entries, each paired with its recorded inhibition value.
# Target or system: Bcl-2-like protein 10 (Homo sapiens) (UniProt Q9HD36)
# Sequence (Q9HD36 whole entry, looked up): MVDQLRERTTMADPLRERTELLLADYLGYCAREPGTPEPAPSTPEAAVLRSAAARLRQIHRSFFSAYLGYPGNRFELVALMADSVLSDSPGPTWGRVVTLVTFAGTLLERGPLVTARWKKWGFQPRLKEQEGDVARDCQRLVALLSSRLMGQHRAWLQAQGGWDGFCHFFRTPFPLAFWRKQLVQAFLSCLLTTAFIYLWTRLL
# Assay name: inhibitors of Bim-Bcl-B binding, primary screen, biochemical, multiplexed, human Bcl-2 family (AID 951);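 further: 0% = tracer peptide without compound and 100% = reference inhibitor peptide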
# Measurement conditions: bead-based flow cytometry, Bim peptide-Bcl-B binding; at 10 µM; active compounds read high
The campaign covered roughly 190,000 compounds. About 140 (0.074%) were called active. The entries come from a sample that favours actives as a whole.
Readout kind: inhibition (%)

{"Compound": "CCOc1ccc(NC(=O)CSc2nc3ccccc3c(=O)n2Cc2cccs2)cc1", "Recorded result": -7}
{"Compound": "CC(Cc1cccs1)NC(=O)c1cccc(Cl)c1 (stereo not drawn)", "Recorded result": -4}
{"Compound": "O=[N+]([O-])c1ccc(N/N=C2/CCCCC2c2ccccn2)c([N+](=O)[O-])c1 (stereo not drawn)", "Recorded result": -11}
{"Compound": "CC(=O)C1C(c2ccc(Cl)cc2)c2c(n[nH]c2C)CC1(C)O (stereo not drawn)", "Recorded result": -4}
{"Compound": "O=C(c1ccc(Cl)c([N+](=O)[O-])c1)N1CCN(c2ccccc2)CC1", "Recorded result": -4}
{"Compound": "CCOC(=O)N/N=C/c1cccnc1", "Recorded result": -4}
{"Compound": "N=C1C(c2nc3ccccc3[nH]2)=C(O)CN1NC(=O)c1c[nH]c2ccccc12", "Recorded result": -2}
{"Compound": "CCN(CC)S(=O)(=O)c1ccc(N2CCCC2)c(NS(=O)(=O)c2cccs2)c1", "Recorded result": -5}
{"Compound": "CCO[C@H]1OC(C(=O)N2CCN(Cc3ccccc3)CC2)=C[C@@H](c2cn(C(C)=O)c3ccccc23)[C@@H]1CCCO", "Recorded result": -3}
{"Compound": "O=C(CSc1nncn1-c1cccnc1)N1CCOCC1", "Recorded result": -6}
{"Compound": "CCN(CC)CCNC(=O)c1ccc(NS(=O)(=O)c2ccc3c(c2)OCCO3)cc1", "Recorded result": 0}
{"Compound": "COc1ccccc1N1CCN(CC(=O)NC(=O)NCc2ccco2)CC1", "Recorded result": -9}
{"Compound": "C[C@@H]1CC[C@]2(O[C@@H](CCO)C[C@H](O)[C@H]2O)O1", "Recorded result": -5}
{"Compound": "CCOC(=O)c1c(-c2cccc(N)c2)cn2ccccc12", "Recorded result": 17}
{"Compound": "Cc1cc(N2CCOCC2)nc2ccc(NC(=S)N3CCN(Cc4ccccc4)CC3)cc12", "Recorded result": -4}
{"Compound": "COc1ccc(C(CC(=O)Nc2ccc(C)cc2)NC(=O)C(F)(F)F)cc1 (stereo not drawn)", "Recorded result": -9}
{"Compound": "CCOC(=O)c1oc2c(CN3CCN(CCO)CC3)c(O)c(CC)cc2c(=O)c1-c1nc2ccccc2s1", "Recorded result": 0}
{"Compound": "CC(=O)Nc1cccc([N+](=O)[O-])c1", "Recorded result": -4}
{"Compound": "NC(=O)Cn1nc([N+](=O)[O-])nc1Oc1ccc(Br)cc1", "Recorded result": -1}
{"Compound": "CCOc1ccc(NC(=O)CN(C)CC(=O)NC(C)c2ccccc2)cc1OCC (stereo not drawn)", "Recorded result": -4}
{"Compound": "CC1(C)CC(N(Cc2ccccc2)C(=O)Cc2ccccc2)CCO1 (stereo not drawn)", "Recorded result": -3}
{"Compound": "CC(=O)NS(=O)(=O)c1ccc(NC(=O)C2C3C=CC(C3)C2C(=O)O)cc1 (stereo not drawn)", "Recorded result": -5}
{"Compound": "CSCc1cc(N(C)C)nc(SCc2ccc(Cl)cc2Cl)n1", "Recorded result": 69}
{"Compound": "C=CCNC(=O)c1ccccc1NC(=O)c1ccc(Cl)c(S(=O)(=O)Nc2cccc(C)c2C)c1", "Recorded result": -5}
{"Compound": "CSCc1cc(N2CCOCC2)nc(SCc2ccc(Cl)cc2Cl)n1", "Recorded result": -11}
{"Compound": "CC(C)(C)C(=O)CSc1nc2ccccc2o1", "Recorded result": -4}
{"Compound": "CCOc1cc(N2CCOCC2)c(OCC)cc1NC(=O)c1cc(C)nc2ccccc12", "Recorded result": -6}
{"Compound": "COC(=O)C1CCN(C(=O)c2cc(=O)[nH]c3ccccc23)CC1", "Recorded result": -1}
{"Compound": "Clc1ccc(CSc2nnc(/C=C/c3ccccc3)o2)c(Cl)c1", "Recorded result": -9}
{"Compound": "COc1cc(C(=O)N[C@@H](C)C(=O)NCc2ccco2)cc(OC)c1OC", "Recorded result": 1}
{"Compound": "Cc1ccccc1NC(=O)CSC1=NCCN1", "Recorded result": -6}
{"Compound": "CN(C)C(=O)N1CCNCC1", "Recorded result": 0}
{"Compound": "COc1ccc(N(C(=O)c2ccc(C)cc2)S(=O)(=O)c2cccs2)cc1", "Recorded result": -6}
